- target-or-test-system: DNA topoisomerase 4 subunit A (Staphylococcus aureus)
- Sequence (P0C1U9 whole entry): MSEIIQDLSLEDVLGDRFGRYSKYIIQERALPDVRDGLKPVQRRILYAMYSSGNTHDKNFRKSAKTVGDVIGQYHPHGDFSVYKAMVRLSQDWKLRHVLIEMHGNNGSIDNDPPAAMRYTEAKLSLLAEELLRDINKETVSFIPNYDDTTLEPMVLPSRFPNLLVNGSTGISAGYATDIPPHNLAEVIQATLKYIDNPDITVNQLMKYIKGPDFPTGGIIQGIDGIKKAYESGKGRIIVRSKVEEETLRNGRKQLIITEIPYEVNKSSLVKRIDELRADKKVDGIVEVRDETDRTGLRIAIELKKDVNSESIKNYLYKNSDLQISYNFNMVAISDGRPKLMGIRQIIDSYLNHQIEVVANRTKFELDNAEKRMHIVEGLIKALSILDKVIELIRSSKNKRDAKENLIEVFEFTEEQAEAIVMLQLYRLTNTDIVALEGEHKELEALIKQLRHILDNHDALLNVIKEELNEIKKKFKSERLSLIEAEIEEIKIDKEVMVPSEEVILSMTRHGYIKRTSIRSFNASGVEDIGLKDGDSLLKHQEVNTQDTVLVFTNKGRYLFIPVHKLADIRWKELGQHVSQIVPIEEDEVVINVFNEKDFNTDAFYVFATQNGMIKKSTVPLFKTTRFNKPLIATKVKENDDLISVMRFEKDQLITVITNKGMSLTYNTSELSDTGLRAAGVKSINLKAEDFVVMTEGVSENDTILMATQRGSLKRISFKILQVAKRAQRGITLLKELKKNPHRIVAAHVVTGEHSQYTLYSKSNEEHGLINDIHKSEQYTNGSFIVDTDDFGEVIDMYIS
- assay: Inhibition of topoisomerase 4 decatenation in Staphylococcus aureus ATCC 29213
pIC50: −log10 of the molar value.
measured-endpoint: pIC50

[
  {
    "compound": "CCc1c2s[nH]c(=O)c2c(=O)n2ccc(-c3cc(C)nc(C)c3)cc12",
    "measured-endpoint": "pIC50",
    "measured-result": 5.20
  },
  {
    "compound": "CCc1c2s[nH]c(=O)c2c(=O)n2ccc(N3CCNCC3)cc12",
    "measured-endpoint": "pIC50",
    "measured-result": 4.43
  },
  {
    "compound": "CCc1c2s[nH]c(=O)c2c(=O)n2ccc(-c3ccncc3)cc12",
    "measured-endpoint": "pIC50",
    "measured-result": 5.09
  },
  {
    "compound": "CCc1c2s[nH]c(=O)c2c(=O)n2ccc(N3CCC(N(C)C)C3)cc12 (racemic)",
    "measured-endpoint": "pIC50",
    "measured-result": 4.10
  }
]

---

Items are presented alongside their recorded MIC.
- System: Escherichia coli
- assay: Antibacterial activity against Escherichia coli ATCC 25922
- Type: functional
measured-endpoint: MIC (mg/L)

[
  {
    "molecule": "CCc1c2s[nH]c(=O)c2c(=O)n2ccc(-c3ccncc3)cc12",
    "units": "mg/L",
    "measured-result": 0.25
  },
  {
    "molecule": "CCc1c2s[nH]c(=O)c2c(=O)n2ccc(N3CCNCC3)cc12",
    "units": "mg/L",
    "measured-result": 4
  },
  {
    "molecule": "CCc1c2s[nH]c(=O)c2c(=O)n2ccc(N3CCC(N(C)C)C3)cc12 (racemic)",
    "units": "mg/L",
    "measured-result": 4
  },
  {
    "molecule": "CCc1c2s[nH]c(=O)c2c(=O)n2ccc(-c3cc(C)nc(C)c3)cc12",
    "units": "mg/L",
    "measured-result": 1
  },
  {
    "molecule": "CCn1cc(C(=O)O)c(=O)c2cc(F)c(N3CCNCC3)cc21 [NORFLOXACIN]",
    "units": "mg/L",
    "measured-result": 0.06
  }
]

---

Items are presented alongside their recorded pIC50.
- target-or-test-system: DNA gyrase (Escherichia coli, UniProt P0AES4+P0AES6)
- assay: Inhibition of DNA gyrase supercoiling in Escherichia coli ATCC 25922
pIC50: −log10 of the molar value.

[
  {
    "compound": "CCc1c2s[nH]c(=O)c2c(=O)n2ccc(N3CCNCC3)cc12",
    "pIC50": 4.85
  },
  {
    "compound": "CCc1c2s[nH]c(=O)c2c(=O)n2ccc(-c3ccncc3)cc12",
    "pIC50": 6.40
  },
  {
    "compound": "CCc1c2s[nH]c(=O)c2c(=O)n2ccc(-c3cc(C)nc(C)c3)cc12",
    "pIC50": 6.70
  },
  {
    "compound": "CCc1c2s[nH]c(=O)c2c(=O)n2ccc(N3CCC(N(C)C)C3)cc12 (racemic)",
    "pIC50": 4.62
  }
]
